Tested on: Liver microsome
test details: Half life in human liver microsomes at 1 uM by LC/MS/MS analysis
Format: ADME
parameter: t1/2
Answer with the value and then the unit.

Worked set:
Inquiry: Quick check: t1/2 of COc1cccc(N2CCN(C(=O)c3cc(C)ccc3OC)CC2)c1 ?
Reply text: 4.5 min

Inquiry: Now consider CCOc1ccccc1C1C(C#N)=C(N)Oc2cc(N(C)C)ccc21 (stereo not drawn) .
Reply text: 9.7 min

Inquiry: Now consider COc1ccc(Cl)cc1C(=O)N1CCN(c2cccc(Cl)c2)CC1 .
Reply text: 6 min

New cases:
Inquiry: Quick check: t1/2 of CCOc1ccc(Nc2nc(-c3c(C)nc4sccn34)cs2)cc1 ?
Reply text: 9.6 min

Inquiry: Now consider NC(=O)c1ccccc1NC(=O)c1cccnc1N1CCCCC1 .
Reply text: 16.7 min

Inquiry: Now consider O=C(Cc1ccc(-c2ccccc2)cc1)NCc1ccccc1 .
Reply text: 10.3 min

Inquiry: Now consider Cc1c(C(=O)OC(C)C)[nH]c2c1C(=O)CC(c1cccs1)C2 (stereo not drawn) .
Reply text: 9.9 min

Inquiry: Now consider COc1ccc(S(=O)(=O)N2CCOc3ccccc32)cc1 .
Reply text: 2 min

----------
// values below are reported Stability
test details: Metabolic stability in mouse liver microsomes assessed as compound remaining at 1 uM after 60 mins by LC/MS/MS analysis
Assay type: ADME, Microsome
experimental conditions: 1 h
Kindly provide the numeric value in % only, without the unit symbol.

Inquiry: Quick check: Stability of COc1cccc(N2CCN(C(=O)c3cc(C)ccc3OC)CC2)c1 ?
Reply text: 0

Inquiry: Now consider Cc1c(C(=O)OC(C)C)[nH]c2c1C(=O)CC(c1cccs1)C2 (stereo not drawn) .
Reply text: 0.1

New cases:
Inquiry: Quick check: Stability of COc1ccc(S(=O)(=O)N2CCOc3ccccc32)cc1 ?
Reply text: 0

Inquiry: Now consider O=C(Cc1ccc(-c2ccccc2)cc1)NCc1ccccc1 .
Reply text: 5.8

Inquiry: Now consider CCOc1ccccc1C1C(C#N)=C(N)Oc2cc(N(C)C)ccc21 (stereo not drawn) .
Reply text: 0.1

----------
test details: Metabolic stability in mouse liver microsomes assessed as compound remaining at 1 uM after 60 mins by LC/MS/MS analysis
Format: ADME, Microsome
experimental conditions: 1 h
parameter: Stability (%)
Kindly provide the numeric value in % only, without the unit symbol.

Worked set:
Inquiry: Quick check: Stability of CCOc1ccc(Nc2nc(-c3c(C)nc4sccn34)cs2)cc1 ?
Reply text: 0.5

Inquiry: Now consider COc1ccc(Cl)cc1C(=O)N1CCN(c2cccc(Cl)c2)CC1 .
Reply text: 0.1

Consider the additional molecule presented here.
Inquiry: Quick check: Stability of NC(=O)c1ccccc1NC(=O)c1cccnc1N1CCCCC1 ?
Reply text: 0
